Values compiled from ChEMBL document CHEMBL2311491.

Target or test system: Cytochrome P450 1A2 (Homo sapiens) (UniProt P05177)
Assay remarks: Inhibition of human recombinant CYP1A2 expressed in Trichoplusia ni BTI-TN-5B1-4 cells preincubated for 15 mins measured after 45 mins by spectrofluorimetry
pIC50: −log10 of the molar value.
Value type: pIC50

Form field pIC50, entry N=C(N)c1ccc(CNC(=O)[C@@H]2Cc3ccc(cc3)NC(=O)CN3CCN(CC3)CC(=O)Nc3ccc(cc3)C[C@@H](NS(=O)(=O)Cc3ccccc3)C(=O)N2)cc1.O=C(O)C(F)(F)F : < 5.00

Form field pIC50, entry N=C(N)c1ccc(CNC(=O)[C@@H]2Cc3ccc(cc3)NC(=O)CCN3CCN(CCC(=O)Nc4ccc(cc4)C[C@@H](NS(=O)(=O)Cc4ccccc4)C(=O)N2)CC3)cc1.O=C(O)C(F)(F)F : < 4.00

====

Target or test system: L-type Ca channel, dihydropyridine site (Rattus norvegicus, UniProt P22002+P27732+Q02485)
Assay remarks: Displacement of [3H]nitrendipine from wistar rat Ca channel L-type dihydropyridine receptor at 10 uM
Study conditions: probe [3H]nitrendipine
Value type: inhibition at 10 µM (%)
Write the answer as a number in %, unit excluded.

Form field inhibition at 10 µM, entry N=C(N)c1ccc(CNC(=O)[C@@H]2Cc3ccc(cc3)NC(=O)CCN3CCN(CCC(=O)Nc4ccc(cc4)C[C@@H](NS(=O)(=O)Cc4ccccc4)C(=O)N2)CC3)cc1.O=C(O)C(F)(F)F : -5

Form field inhibition at 10 µM, entry N=C(N)c1ccc(CNC(=O)[C@@H]2Cc3ccc(cc3)NC(=O)CN3CCN(CC3)CC(=O)Nc3ccc(cc3)C[C@@H](NS(=O)(=O)Cc3ccccc3)C(=O)N2)cc1.O=C(O)C(F)(F)F : -2

====

For each entry below, report its Ki value.
Target or test system: Vitamin K-dependent protein C (Homo sapiens, UniProt P04070)
Sequence (P04070 43-197 limits assumed): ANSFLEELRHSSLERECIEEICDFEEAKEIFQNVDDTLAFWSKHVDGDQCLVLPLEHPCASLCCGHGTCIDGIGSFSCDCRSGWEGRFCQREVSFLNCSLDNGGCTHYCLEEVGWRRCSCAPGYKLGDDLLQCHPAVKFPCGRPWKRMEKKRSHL
Sequence (P04070 212-461 limits assumed): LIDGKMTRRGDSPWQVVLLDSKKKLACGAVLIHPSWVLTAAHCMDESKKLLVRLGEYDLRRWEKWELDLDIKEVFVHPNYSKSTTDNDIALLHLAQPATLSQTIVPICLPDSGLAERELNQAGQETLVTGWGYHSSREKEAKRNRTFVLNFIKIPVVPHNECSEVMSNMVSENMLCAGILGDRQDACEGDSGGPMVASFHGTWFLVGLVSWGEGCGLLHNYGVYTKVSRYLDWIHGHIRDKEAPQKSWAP
Assay remarks: Inhibition of human activated protein C using H-D-Lys(Cbz)-Pro-Arg-pNA as substrate after 5 to 10 mins by micro plate reader analysis
Write the answer as a number in µM, unit excluded.

Form field Ki, entry C[C@H]1CN2CC(=O)Nc3ccc(cc3)C[C@@H](C(=O)NCc3ccc(C(=N)N)cc3)NC(=O)[C@H](NS(=O)(=O)Cc3ccccc3)Cc3ccc(cc3)CNC(=O)CN1C[C@@H]2C : 1.6

Form field Ki, entry N=C(N)c1ccc(CNC(=O)[C@@H]2Cc3ccc(cc3)NC(=O)CN3CCN(CC3)CC(=O)Nc3cccc(c3)C[C@@H](NS(=O)(=O)Cc3ccccc3)C(=O)N2)cc1 : 0.42

Form field Ki, entry N=C(N)c1ccc(CNC(=O)[C@@H]2Cc3cccc(c3)NC(=O)CCN3CCN(CCC(=O)Nc4ccc(cc4)C[C@@H](NS(=O)(=O)Cc4ccccc4)C(=O)N2)CC3)cc1 : 0.88

Form field Ki, entry N=C(N)c1ccc(CNC(=O)[C@@H]2Cc3ccc(cc3)NC(=O)CN3CCN(CC3)CC(=O)NCc3ccc(cc3)C[C@@H](NS(=O)(=O)Cc3ccccc3)C(=O)N2)cc1 : 3.9

Form field Ki, entry N=C(N)c1ccc(CNC(=O)[C@@H]2Cc3ccc(cc3)NC(=O)CCN3CCN(CCC(=O)Nc4cccc(c4)C[C@@H](NS(=O)(=O)Cc4ccccc4)C(=O)N2)CC3)cc1 : 3.8

====

Target or test system: Coagulation factor X (Homo sapiens)
Sequence (P00742 41-179 limits assumed): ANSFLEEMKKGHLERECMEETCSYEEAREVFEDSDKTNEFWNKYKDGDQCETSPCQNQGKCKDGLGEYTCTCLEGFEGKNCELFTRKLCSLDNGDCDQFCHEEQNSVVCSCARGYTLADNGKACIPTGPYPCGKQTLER
Sequence (P00742 235-488 limits assumed): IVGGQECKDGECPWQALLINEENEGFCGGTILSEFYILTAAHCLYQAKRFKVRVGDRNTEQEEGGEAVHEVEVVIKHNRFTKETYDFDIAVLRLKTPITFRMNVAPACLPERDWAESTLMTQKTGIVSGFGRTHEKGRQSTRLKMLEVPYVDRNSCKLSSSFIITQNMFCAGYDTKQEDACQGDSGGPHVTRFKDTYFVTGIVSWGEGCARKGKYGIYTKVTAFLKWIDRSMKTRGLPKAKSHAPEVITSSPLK
Response field label takes satisfied when Ki is strictly below 3 µM and not satisfied in all other cases.

Exercise: Strictly below 3 µM: is that where Ki of N=C(N)c1ccc(CNC(=O)[C@@H]2Cc3cccc(c3)NC(=O)CCN3CCN(CCC(=O)Nc4ccc(cc4)C[C@@H](NS(=O)(=O)Cc4ccccc4)C(=O)N2)CC3)cc1 sits?
Key: satisfied

Exercise: Strictly below 3 µM: is that where Ki of C[C@H]1CN2CC(=O)Nc3ccc(cc3)C[C@@H](NS(=O)(=O)Cc3ccccc3)C(=O)N[C@H](C(=O)NCc3ccc(C(=N)N)cc3)Cc3ccc(cc3)NC(=O)CN1C[C@@H]2C sits?
Key: not satisfied

Exercise: Strictly below 3 µM: is that where Ki of N=C(N)c1ccc(CNC(=O)[C@@H]2Cc3ccc(cc3)NC(=O)CN3CCN(CC3)CC(=O)NCc3ccc(cc3)C[C@@H](NS(=O)(=O)Cc3ccccc3)C(=O)N2)cc1 sits?
Key: satisfied

Exercise: Strictly below 3 µM: is that where Ki of N=C(N)c1ccc(CNC(=O)[C@@H]2Cc3cccc(c3)NC(=O)CN3CCN(CC3)CC(=O)Nc3cccc(c3)C[C@@H](NS(=O)(=O)Cc3ccccc3)C(=O)N2)cc1 sits?
Key: satisfied

Exercise: Strictly below 3 µM: is that where Ki of N=C(N)c1ccc(CNC(=O)[C@@H]2Cc3ccc(cc3)NC(=O)CCN3CCN(CCC(=O)Nc4ccc(cc4)C[C@@H](NS(=O)(=O)Cc4ccccc4)C(=O)N2)CC3)cc1.O=C(O)C(F)(F)F sits?
Key: not satisfied

Exercise: Strictly below 3 µM: is that where Ki of N=C(N)c1ccc(CNC(=O)[C@@H]2Cc3ccc(cc3)NC(=O)CN3CCN(CC3)CC(=O)Nc3ccc(cc3)C[C@@H](NS(=O)(=O)Cc3ccccc3)C(=O)N2)cc1.O=C(O)C(F)(F)F sits?
Key: not satisfied

====

Target or test system: Cytochrome P450 2C9 (Homo sapiens, UniProt P11712)
Sequence (P11712 whole entry): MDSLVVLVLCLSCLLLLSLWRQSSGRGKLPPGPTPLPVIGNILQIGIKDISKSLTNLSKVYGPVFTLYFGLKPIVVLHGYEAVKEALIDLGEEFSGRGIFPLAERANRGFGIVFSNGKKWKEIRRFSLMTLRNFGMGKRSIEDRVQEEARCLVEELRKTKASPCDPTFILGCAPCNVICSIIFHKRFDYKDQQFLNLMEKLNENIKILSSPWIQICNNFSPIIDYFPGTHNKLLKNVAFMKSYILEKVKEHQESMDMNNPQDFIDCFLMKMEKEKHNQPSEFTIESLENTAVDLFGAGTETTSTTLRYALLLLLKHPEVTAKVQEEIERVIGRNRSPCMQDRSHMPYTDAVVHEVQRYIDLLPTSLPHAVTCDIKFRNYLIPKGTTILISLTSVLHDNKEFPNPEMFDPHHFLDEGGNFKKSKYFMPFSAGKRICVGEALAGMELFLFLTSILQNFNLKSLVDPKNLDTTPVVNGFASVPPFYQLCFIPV
Assay remarks: Inhibition of human recombinant CYP2C9 expressed in Trichoplusia ni BTI-TN-5B1-4 cells preincubated for 15 mins measured after 45 mins by spectrofluorimetry
For each entry below, report its IC50 value.

Form field IC50, entry N=C(N)c1ccc(CNC(=O)[C@@H]2Cc3ccc(cc3)NC(=O)CN3CCN(CC3)CC(=O)Nc3ccc(cc3)C[C@@H](NS(=O)(=O)Cc3ccccc3)C(=O)N2)cc1.O=C(O)C(F)(F)F : > 100 µM

Form field IC50, entry N=C(N)c1ccc(CNC(=O)[C@@H]2Cc3ccc(cc3)NC(=O)CCN3CCN(CCC(=O)Nc4ccc(cc4)C[C@@H](NS(=O)(=O)Cc4ccccc4)C(=O)N2)CC3)cc1.O=C(O)C(F)(F)F : > 100 µM

====

Target or test system: Plasma kallikrein (Homo sapiens, UniProt P03952)
Sequence (P03952 20-390 limits assumed): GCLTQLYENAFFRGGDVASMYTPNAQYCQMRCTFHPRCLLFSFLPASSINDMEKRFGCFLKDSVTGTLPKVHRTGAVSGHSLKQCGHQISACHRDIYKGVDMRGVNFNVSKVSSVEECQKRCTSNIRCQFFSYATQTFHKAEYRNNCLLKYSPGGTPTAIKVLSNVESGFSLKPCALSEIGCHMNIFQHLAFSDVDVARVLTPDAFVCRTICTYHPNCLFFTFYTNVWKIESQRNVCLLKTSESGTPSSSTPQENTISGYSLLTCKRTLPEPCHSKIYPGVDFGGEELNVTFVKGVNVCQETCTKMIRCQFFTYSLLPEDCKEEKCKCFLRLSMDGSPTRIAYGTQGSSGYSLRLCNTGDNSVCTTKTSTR
Sequence (P03952 391-638 limits assumed): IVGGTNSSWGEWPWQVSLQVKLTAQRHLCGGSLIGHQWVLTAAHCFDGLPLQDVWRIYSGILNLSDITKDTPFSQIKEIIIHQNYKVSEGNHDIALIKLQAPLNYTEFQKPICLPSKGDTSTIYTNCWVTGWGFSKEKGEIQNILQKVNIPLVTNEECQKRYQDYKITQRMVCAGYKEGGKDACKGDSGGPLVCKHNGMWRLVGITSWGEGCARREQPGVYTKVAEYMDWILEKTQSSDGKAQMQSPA
Assay remarks: Inhibition of human plasma kallikrein using H-D-Pro-Phe-Arg-pNA as substrate after 5 to 10 mins by micro plate reader analysis
For each entry below, report its log10 Ki value.
Please note: log10 values; quantity Ki; unit nM.

Form field log10 Ki, entry N=C(N)c1ccc(CNC(=O)[C@@H]2Cc3ccc(cc3)NC(=O)CCN3CCN(CCC(=O)Nc4ccc(cc4)C[C@@H](NS(=O)(=O)Cc4ccccc4)C(=O)N2)CC3)cc1.O=C(O)C(F)(F)F : 3.00

Form field log10 Ki, entry N=C(N)c1ccc(CNC(=O)[C@@H]2Cc3ccc(cc3)NC(=O)CN3CCCN(CC3)CC(=O)NCc3ccc(cc3)C[C@@H](NS(=O)(=O)Cc3ccccc3)C(=O)N2)cc1 : 2.64

Form field log10 Ki, entry N=C(N)c1ccc(CNC(=O)[C@@H]2Cc3cccc(c3)NC(=O)CN3CCN(CC3)CC(=O)Nc3ccc(cc3)C[C@@H](NS(=O)(=O)Cc3ccccc3)C(=O)N2)cc1 : 1.11

Form field log10 Ki, entry C[C@@H]1CN2CC(=O)Nc3ccc(cc3)C[C@@H](C(=O)NCc3ccc(C(=N)N)cc3)NC(=O)[C@H](NS(=O)(=O)Cc3ccccc3)Cc3ccc(cc3)NC(=O)CN1C[C@@H]2C : 2.70

Form field log10 Ki, entry C[C@H]1CN2CC(=O)Nc3ccc(cc3)C[C@@H](NS(=O)(=O)Cc3ccccc3)C(=O)N[C@H](C(=O)NCc3ccc(C(=N)N)cc3)Cc3ccc(cc3)NC(=O)CN1C[C@@H]2C : 2.38

Form field log10 Ki, entry N=C(N)c1ccc(CNC(=O)[C@@H]2Cc3ccc(cc3)NC(=O)CN3CCN(CC3)CC(=O)Nc3cccc(c3)C[C@@H](NS(=O)(=O)Cc3ccccc3)C(=O)N2)cc1 : 2.07

Form field log10 Ki, entry N=C(N)c1ccc(CNC(=O)[C@@H]2Cc3ccc(cc3)NC(=O)CN3CCN(CC3)CC(=O)NCc3ccc(cc3)C[C@@H](NS(=O)(=O)Cc3ccccc3)C(=O)N2)cc1 : 2.27

====

For each entry below, report its inhibition at 10 µM value.
Target or test system: L-type Ca channel, benzothiazepine site (Rattus norvegicus, UniProt P22002+P27732+Q02485)
Assay remarks: Displacement of [3H]diltiazem from wistar rat Ca channel L-type benzothiazepine receptor at 10 uM
Study conditions: probe [3H]diltiazem
Write the answer as a number in %, unit excluded.

Form field inhibition at 10 µM, entry N=C(N)c1ccc(CNC(=O)[C@@H]2Cc3ccc(cc3)NC(=O)CN3CCN(CC3)CC(=O)Nc3ccc(cc3)C[C@@H](NS(=O)(=O)Cc3ccccc3)C(=O)N2)cc1.O=C(O)C(F)(F)F : 1

Form field inhibition at 10 µM, entry N=C(N)c1ccc(CNC(=O)[C@@H]2Cc3ccc(cc3)NC(=O)CCN3CCN(CCC(=O)Nc4ccc(cc4)C[C@@H](NS(=O)(=O)Cc4ccccc4)C(=O)N2)CC3)cc1.O=C(O)C(F)(F)F : -4
